Tested on: differentiated PK-15 cells
experimentNotes: cells
setupConditions: Sus scrofa, PK-15, read-out: Mitochondrial Toxicity 1d (EC50, acceleration of glycolysis and depolarization of mitochondria)
observationType: EC50 (µg/mL)
Expressed in µg/mL, but write only the number.

For orientation, consider the following solved cases.
CCCCCCCCCC[N+](C)(C)CCCCCCCCCC [DDAC, Didecyl- dimethyl- ammonium- chloride] = 1
Oc1cc(Cl)ccc1Oc1ccc(Cl)cc1Cl = 5

Input line: Fill in the recorded EC50 for this compound, with differentiated PK-15 cells as test system: CC(C)[C@H]1C(=O)O[C@H](C(C)C)C(=O)N(C)[C@@H](C(C)C)C(=O)O[C@H](C(C)C)C(=O)N(C)[C@@H](C(C)C)C(=O)O[C@H](C(C)C)C(=O)N1C
Output line: 2

Input line: Fill in the recorded EC50 for this compound, with differentiated PK-15 cells as test system: Cc1cc(O)c2c(c1)C(=O)c1cc(O)cc(O)c1C2=O
Output line: 3
